- experimental-system: UniProt Q04771
- Sequence (Q04771 whole entry, looked up): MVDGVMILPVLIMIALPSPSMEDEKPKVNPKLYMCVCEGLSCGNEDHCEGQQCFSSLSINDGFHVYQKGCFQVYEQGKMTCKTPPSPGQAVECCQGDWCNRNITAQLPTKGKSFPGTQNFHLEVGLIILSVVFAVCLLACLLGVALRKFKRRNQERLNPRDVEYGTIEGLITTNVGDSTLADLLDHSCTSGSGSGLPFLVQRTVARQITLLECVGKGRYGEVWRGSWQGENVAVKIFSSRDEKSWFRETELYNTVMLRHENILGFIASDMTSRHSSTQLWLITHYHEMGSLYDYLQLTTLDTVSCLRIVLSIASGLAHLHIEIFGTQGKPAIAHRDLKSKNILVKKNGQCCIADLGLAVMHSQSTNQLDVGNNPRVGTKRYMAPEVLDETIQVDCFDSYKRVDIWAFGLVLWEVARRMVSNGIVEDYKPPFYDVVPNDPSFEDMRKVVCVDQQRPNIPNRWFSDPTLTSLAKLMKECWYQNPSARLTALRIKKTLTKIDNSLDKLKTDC
- measurement-protocol: radiometric filter-binding kinase assay, Kinase HotSpot
- condition-details: compound 0.5 µM; ATP 10 µM
observed-property: residual activity (%)
Answer with a number only, understood to be in %.

*Q* Form field: residual activity recorded for Nc1cccc(-c2cc3c(Oc4cccc(O)c4)ncnc3[nH]2)c1 with UniProt Q04771 (enter value)
*A* 183

*Q* Recorded residual activity for COc1ccc(COc2ccc(Cc3cnc(N)nc3N)cc2OC)cc1 with UniProt Q04771, please?
*A* 100

*Q* Item: CCN(CC)CCNC(=O)c1c(C)[nH]c(/C=C2\C(=O)Nc3ccc(F)cc32)c1C Test system: UniProt Q04771 Read-out: residual activity Value: ?
*A* 121

*Q* Query for UniProt Q04771: what residual activity does the record show for Nc1ncnc2c1c(-c1ccc(Oc3ccccc3)cc1)cn2C1CCCC1 ?
*A* 95.4

*Q* Form field: residual activity recorded for O=c1cc(N2CCOCC2)oc2c1ccc1ccccc12 with UniProt Q04771 (enter value)
*A* 107

*Q* Lab note: need residual activity with UniProt Q04771 for entry N#CC(C#N)=C(N)/C(C#N)=C/c1ccc(O)cc1 , please look it up.
*A* 93.8

*Q* Recall the recorded residual activity for CC[n+]1c(/C=C/N(C)c2ccccc2)n(-c2ccccc2)c2ccc(-c3nc4ccccc4s3)cc21 with UniProt Q04771 and state it.
*A* 103

*Q* Request body: readout residual activity, system UniProt Q04771, query Nc1ccc2ncnc(NCCc3ccc(Oc4ccccc4)cc3)c2c1 . Return the value.
*A* 91.8

*Q* Under UniProt Q04771: residual activity value of O=S(=O)(c1cccc2cnccc12)N1CCCNCC1 ?
*A* 96.5

*Q* Query for UniProt Q04771: what residual activity does the record show for CCCC(=O)Oc1ccc2[nH]c(C(=O)c3cc4ccccc4[nH]3)cc2c1 ?
*A* 100

*Q* Lab request: please report residual activity under test system UniProt Q04771 for CC(=O)c1ccc(N2CCOCC2)cc1O
*A* 107

*Q* Query residual activity on UniProt Q04771 for Cc1[nH]c(/C=C2\C(=O)Nc3ccc(S(=O)(=O)N(C)c4cccc(Cl)c4)cc32)c(C)c1C(=O)N1CCN(C)CC1
*A* 96.8

*Q* Form field - read-out: residual activity; system: UniProt Q04771; submitted item: O=C1NC(=O)/C(=C/c2ccc3c(c2)OC(F)(F)O3)S1
*A* 97.4

*Q* Param readout = residual activity; param system = UniProt Q04771; param query = COc1cc2ncnc(Nc3cccc(Cl)c3)c2cc1OC ; response: value
*A* 108

*Q* # value lookup — system UniProt Q04771, readout residual activity, item Cc1ccc(S(=O)(=O)/C=C/C#N)cc1
*A* 101

*Q* // fetch UniProt Q04771 residual activity for CC#CC(=O)Nc1cc2c(Nc3ccc(F)c(Cl)c3)ncnc2cn1
*A* 105

*Q* Give UniProt Q04771 residual activity for O=C1Nc2ccc(Cl)cc2/C1=C/c1cc(Cl)c(O)c(Cl)c1
*A* 130

*Q* # returns recorded residual activity (system: UniProt Q04771) for COc1ccc2c(c[n+](C)c3c4cc5c(cc4ccc23)OCO5)c1OC
*A* 93.2

*Q* Recall the recorded residual activity for Oc1cccc(-c2nc(N3CCOCC3)c3oc4ncccc4c3n2)c1 with UniProt Q04771 and state it.
*A* 105

*Q* Reported residual activity for UniProt Q04771, given c1ccc(-c2n[nH]c3c2oc2ccccc23)cc1 ?
*A* 99.4

*Q* residual activity of Cc1ccc(NC2=CC(=O)c3sc(C)nc3C2=O)cc1 on UniProt Q04771?
*A* 99.1

*Q* Kindly state the measured residual activity obtained for c1ccc(-c2n[nH]cc2-c2ccnc3ccccc23)nc1 with UniProt Q04771.
*A* 106

*Q* Kindly state the measured residual activity obtained for CCN(CC)CCNC(=O)c1c(C)[nH]c(/C=C2\C(=O)Nc3ccc(Cl)cc32)c1C with UniProt Q04771.
*A* 108

*Q* State its residual activity on UniProt Q04771: CO[C@H]1CC2CC[C@@H](C)[C@@](O)(O2)C(=O)C(=O)N2CCCC[C@H]2C(=O)OC([C@H](C)C[C@@H]2CC[C@@H](O)[C@H](OC)C2)CC(=O)[C@H](C)/C=C(\C)[C@@H](O)[C@@H](OC)C(=O)[C@H](C)C[C@H](C)/C=C/C=C/C=C/1C (stereo partly specified)
*A* 94.6

*Q* Short answer please: residual activity, UniProt Q04771, entry N#C/C(=C(/N)Sc1ccc(N)cc1)c1ccccc1C(F)(F)F
*A* 101

*Q* Requested read-out residual activity, target or system UniProt Q04771, entry Nc1ncnc2[nH]nc(Nc3ccc(F)cc3)c12
*A* 127

*Q* Under UniProt Q04771: residual activity value of CNC(=O)c1cc(Oc2ccc(NC(=O)Nc3ccc(Cl)c(C(F)(F)F)c3)cc2)ccn1 ?
*A* 98.7

*Q* Param readout= residual activity; system= UniProt Q04771; entry= Cc1ccc(Nc2nccc(N(C)c3ccc4c(C)n(C)nc4c3)n2)cc1S(N)(=O)=O ; returns value.
*A* 104

*Q* Reported residual activity for UniProt Q04771, given O=C1NC(=O)C(c2cn(CCCn3ccnc3)c3ccccc23)=C1Nc1ccccc1 ?
*A* 94.4

*Q* # value lookup — system UniProt Q04771, readout residual activity, item O=C(Nc1cccc(Nc2nccc(Nc3cccc(C(F)(F)F)c3)n2)c1)C1CC1
*A* 111

*Q* Hello, I am looking for reported residual activity with UniProt Q04771 for O=C1NC(=O)c2c1c1c3ccccc3n3c1c1c2c2ccccc2n1C1CCC3O1 . Could you help?
*A* 85.8

*Q* Notebook: pull reported residual activity for UniProt Q04771, entry CNc1cc2c(Nc3cccc(Br)c3)ncnc2cn1
*A* 104

*Q* Hello, I am looking for reported residual activity with UniProt Q04771 for CCN(CC)C(=O)c1ccc(Nc2nc(OCC3CCCCC3)c3nc[nH]c3n2)cc1 . Could you help?
*A* 98.8

*Q* Please state recorded residual activity (tested on UniProt Q04771) of CC(C)N(CCC(=O)c1ccc2ccccc2c1)Cc1ccccc1
*A* 93.6

*Q* Any idea what residual activity came out for CCC(=O)Nc1ccc2ncnc(Nc3cccc(Br)c3)c2c1 on UniProt Q04771?
*A* 93.7

*Q* Entry CCOC(=O)c1c(C)[nH]c(/C=C2\C(=O)Nc3ccccc32)c1C , system UniProt Q04771: what residual activity was measured?
*A* 99.8

====

- experimental-system: LCK (human)
- measurement-protocol: radiometric filter-binding kinase assay, Kinase HotSpot
- condition-details: compound 0.5 µM; ATP 10 µM
What residual activity was measured for each of the following?

*Q* What measured residual activity goes with Nc1ccc2ncnc(NCCc3ccc(Oc4ccccc4)cc3)c2c1 ?
*A* 98.3%

*Q* Name the recorded residual activity for CC(=O)c1ccc(N2CCOCC2)cc1O .
*A* 100%

*Q* What residual activity value was documented for this molecule, CCN(CC)C(=O)c1ccc(Nc2nc(OCC3CCCCC3)c3nc[nH]c3n2)cc1 ?
*A* 39.8%

*Q* I have this molecule here, c1ccc(-c2n[nH]cc2-c2ccnc3ccccc23)nc1 , and I need its recorded residual activity.
*A* 91.7%

*Q* What value of residual activity has been recorded for this entry: Nc1ncnc2c1c(-c1ccc(Oc3ccccc3)cc1)cn2C1CCCC1
*A* 1.12%

*Q* Need residual activity of O=S(=O)(c1cccc2cnccc12)N1CCCNCC1 , thanks.
*A* 101%

====

Provide the reported residual activity of each item.
- experimental-system: UniProt P31749
- Sequence (P31749 whole entry, looked up): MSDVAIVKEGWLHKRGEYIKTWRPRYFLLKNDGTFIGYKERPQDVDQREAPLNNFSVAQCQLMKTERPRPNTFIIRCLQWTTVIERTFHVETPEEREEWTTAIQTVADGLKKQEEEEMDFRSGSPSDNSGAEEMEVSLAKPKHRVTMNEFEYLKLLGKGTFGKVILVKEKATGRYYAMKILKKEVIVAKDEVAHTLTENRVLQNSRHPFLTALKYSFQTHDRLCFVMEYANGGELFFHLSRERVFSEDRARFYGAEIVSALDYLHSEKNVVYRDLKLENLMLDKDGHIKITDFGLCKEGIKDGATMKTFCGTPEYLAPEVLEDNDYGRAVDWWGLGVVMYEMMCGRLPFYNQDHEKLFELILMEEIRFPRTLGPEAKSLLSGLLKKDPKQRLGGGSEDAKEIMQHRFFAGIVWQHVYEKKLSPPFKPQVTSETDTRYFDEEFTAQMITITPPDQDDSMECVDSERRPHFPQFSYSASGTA
- measurement-protocol: radiometric filter-binding kinase assay, Kinase HotSpot
- condition-details: compound 0.5 µM; ATP 10 µM
State the answer as a number, implicitly in %.

*Q* Which value of residual activity has been reported for O=S(=O)(c1cccc2cnccc12)N1CCCNCC1 in the records?
*A* 99.3

*Q* Any idea what its residual activity is? The molecule is O=C1NC(=O)C(c2cn(CCCn3ccnc3)c3ccccc23)=C1Nc1ccccc1
*A* 101

*Q* May I ask what residual activity has been recorded for Cc1ccc(NC2=CC(=O)c3sc(C)nc3C2=O)cc1 ?
*A* 83.3

*Q* Need residual activity of CCN(CC)C(=O)c1ccc(Nc2nc(OCC3CCCCC3)c3nc[nH]c3n2)cc1 , thanks.
*A* 98.8

*Q* Can you share its residual activity? I mean this molecule: CO[C@H]1CC2CC[C@@H](C)[C@@](O)(O2)C(=O)C(=O)N2CCCC[C@H]2C(=O)OC([C@H](C)C[C@@H]2CC[C@@H](O)[C@H](OC)C2)CC(=O)[C@H](C)/C=C(\C)[C@@H](O)[C@@H](OC)C(=O)[C@H](C)C[C@H](C)/C=C/C=C/C=C/1C (stereo partly specified)
*A* 104

*Q* Recorded residual activity for CNC(=O)c1cc(Oc2ccc(NC(=O)Nc3ccc(Cl)c(C(F)(F)F)c3)cc2)ccn1 , please?
*A* 96.2

*Q* Please give the measured residual activity for this molecule: COc1ccc2c(c[n+](C)c3c4cc5c(cc4ccc23)OCO5)c1OC
*A* 97.6

*Q* For the molecule shown here, O=c1cc(N2CCOCC2)oc2c1ccc1ccccc12 , give the reported residual activity.
*A* 101

*Q* Consider the molecule CCCC(=O)Oc1ccc2[nH]c(C(=O)c3cc4ccccc4[nH]3)cc2c1 and give its measured residual activity.
*A* 102

*Q* residual activity lookup needed for Cc1ccc(Nc2nccc(N(C)c3ccc4c(C)n(C)nc4c3)n2)cc1S(N)(=O)=O , thanks.
*A* 91.2

*Q* // residual activity lookup, key: CCC(=O)Nc1ccc2ncnc(Nc3cccc(Br)c3)c2c1
*A* 95.8

*Q* Need residual activity, item COc1ccc(COc2ccc(Cc3cnc(N)nc3N)cc2OC)cc1
*A* 97.4

*Q* Can you look up the measured residual activity of O=C(Nc1cccc(Nc2nccc(Nc3cccc(C(F)(F)F)c3)n2)c1)C1CC1 for me?
*A* 109

*Q* Can you look up the measured residual activity of CC#CC(=O)Nc1cc2c(Nc3ccc(F)c(Cl)c3)ncnc2cn1 for me?
*A* 98.1

*Q* Return reported residual activity; argument: Nc1cccc(-c2cc3c(Oc4cccc(O)c4)ncnc3[nH]2)c1
*A* 92.5

*Q* # query: residual activity of entry CC(=O)c1ccc(N2CCOCC2)cc1O
*A* 103

*Q* Fill blank: measured residual activity of the molecule CNc1cc2c(Nc3cccc(Br)c3)ncnc2cn1 is ____.
*A* 98.8

*Q* Suppose we examine the molecule CCOC(=O)c1c(C)[nH]c(/C=C2\C(=O)Nc3ccccc32)c1C ; what residual activity value has been reported?
*A* 96.1

*Q* Quick one: residual activity for Nc1ccc2ncnc(NCCc3ccc(Oc4ccccc4)cc3)c2c1 ?
*A* 98.2

*Q* Which measured residual activity value corresponds to CCN(CC)CCNC(=O)c1c(C)[nH]c(/C=C2\C(=O)Nc3ccc(Cl)cc32)c1C ?
*A* 102

*Q* Look up residual activity for this molecule: c1ccc(-c2n[nH]c3c2oc2ccccc23)cc1
*A* 86.9
